- assay.system: CD18 cysteine-rich domain (Cloud-Clone)
- experiment: SPR
Where no end group is shown, it is not given here.
quantity.measured: Kd (nM)
Please give a number only; it is taken to be in nM.

# input Which value of Kd has been reported for VLTTGLPALISWIKRKRQQ (also: biotin, position not given here) [biotinylated TAMpep] in the records?
# output 0.185
